- EXPERIMENT: Solubility assessment at room temperature by solvent aliquot addition and visual inspection
- Assay type: physicochemical
- CONDITIONS_USED: organic solvent or mixture, thermodynamic from solid, DCM

COMPOUND	solubility
COc1ccc2c(O[C@@H]3C[C@H]4C(=O)N[C@]5(C(=O)[N-]S(=O)(=O)C6CC6)C[C@H]5/C=C\CCCCC[C@H](CC(=O)N5CCCC(F)(F)C5)C(=O)N4C3)cc(-c3nc(C(C)C)cs3)nc2c1C.[Na+] [ACH-0142684 sodium salt]	49 to 98 mg/mL

====

- EXPERIMENT: Solubility in screen solvents derived from loading in solvent and dissolution
- Assay type: physicochemical
- CONDITIONS_USED: 1-propanol, organic solvent or mixture, thermodynamic from solid
- Source text: They were selected based on a diverse range of properties including dielectric constants, boiling points, and H-bonding that are important to crystallization and crystal-form discovery. The values in TABLE 2 are derived from ACH-0142684 loading in solvent and dissolution. The symbol † indicates the solubility value is found in TABLE 1.
OBSERVED_PROPERTY: solubility

COc1ccc2c(O[C@@H]3C[C@H]4C(=O)N[C@]5(C(=O)NS(=O)(=O)C6CC6)C[C@H]5/C=C\CCCCC[C@H](CC(=O)N5CCCC(F)(F)C5)C(=O)N4C3)cc(-c3nc(C(C)C)cs3)nc2c1C < 50 mg/mL

These data points were gathered from patent US9085607B2.
